Test system: human T-lymphocyte (CEM) cells
Experiment: Cytostatic activity, CEM cell proliferation
Format: cell-based
Conditions: mean ± SD of three experiments; highest concentration tested 250 µM; 3 days; read-out: Toxicity (IC50) CEM
Quick rule for you: IC50 under 30 µM gets true, anything else gets false.

INSERT INTO assay_data (compound, class_assignment) VALUES
  ('CNC(CC(C)C)C(=O)NC1C(=O)NC(CC(N)=O)C(=O)NC2C(=O)NC3C(=O)NC(C(=O)NC(C(=O)NCCCNC(=O)c4ccc5cc(OC)ccc5c4)c4cc(O)cc(O)c4-c4cc3ccc4O)C(O)c3ccc(c(Cl)c3)Oc3cc2cc(c3OC2OC(CO)C(O)C(O)C2OC2CC(C)(N)C(O)C(C)O2)Oc2ccc(cc2Cl)C1O (centres unmarked)', 'false'),
  ('CCCC#Cc1ccc(NC(=O)CNC(=O)C2NC(=O)C3NC(=O)C(NC(=O)C4NC(=O)C(CC(N)=O)NC(=O)C(NC(=O)C(CC(C)C)NC)C(O)c5ccc(c(Cl)c5)Oc5cc4cc(c5OC4OC(CO)C(O)C(O)C4OC4CC(C)(N)C(O)C(C)O4)Oc4ccc(cc4Cl)C3O)c3ccc(O)c(c3)-c3c(O)cc(O)cc32)cc1 (centres unmarked)', 'true'),
  ('CCCCCCCC[N+](C)(C)CCCNC(=O)c1ccc(NC(=O)CNC(=O)C2NC(=O)C3NC(=O)C(NC(=O)C4NC(=O)C(CC(N)=O)NC(=O)C(NC(=O)C(CC(C)C)NC)C(O)c5ccc(c(Cl)c5)Oc5cc4cc(c5OC4OC(CO)C(O)C(O)C4OC4CC(C)(N)C(O)C(C)O4)Oc4ccc(cc4Cl)C3O)c3ccc(O)c(c3)-c3c(O)cc(O)cc32)cc1 (centres unmarked)', 'false'),
  ('CN[C@H](CC(C)C)C(=O)N[C@H]1C(=O)N[C@@H](CC(N)=O)C(=O)N[C@H]2C(=O)N[C@H]3C(=O)N[C@H](C(=O)N[C@H](C(=O)NCC(=O)Nc4ccc(N5CCOCC5)cc4)c4cc(O)cc(O)c4-c4cc3ccc4O)[C@H](O)c3ccc(c(Cl)c3)Oc3cc2cc(c3O[C@@H]2O[C@H](CO)[C@@H](O)[C@H](O)[C@H]2O[C@H]2C[C@](C)(N)[C@H](O)[C@H](C)O2)Oc2ccc(cc2Cl)[C@H]1O', 'false'),
  ('CN[C@H](CC(C)C)C(=O)N[C@H]1C(=O)N[C@@H](CC(N)=O)C(=O)N[C@H]2C(=O)N[C@H]3C(=O)N[C@H](C(=O)N[C@H](C(=O)NCCNC(=O)CC(c4ccccc4)c4ccccc4)c4cc(O)cc(O)c4-c4cc3ccc4O)[C@H](O)c3ccc(c(Cl)c3)Oc3cc2cc(c3O[C@@H]2O[C@H](CO)[C@@H](O)[C@H](O)[C@H]2O[C@H]2C[C@](C)(N)[C@H](O)[C@H](C)O2)Oc2ccc(cc2Cl)[C@H]1O', 'false'),
  ('CN[C@H](CC(C)C)C(=O)N[C@H]1C(=O)N[C@@H](CC(N)=O)C(=O)N[C@H]2C(=O)N[C@H]3C(=O)N[C@H](C(=O)N[C@H](C(=O)NCCNC(=O)/C=C/c4ccc(NS(=O)(=O)c5ccc(C)cc5)cc4)c4cc(O)cc(O)c4-c4cc3ccc4O)[C@H](O)c3ccc(c(Cl)c3)Oc3cc2cc(c3O[C@@H]2O[C@H](CO)[C@@H](O)[C@H](O)[C@H]2O[C@H]2C[C@](C)(N)[C@H](O)[C@H](C)O2)Oc2ccc(cc2Cl)[C@H]1O', 'false'),
  ('CCCCCc1ccc(NC(=O)CNC(=O)[C@H]2NC(=O)[C@H]3NC(=O)[C@H](NC(=O)[C@@H]4NC(=O)[C@H](CC(N)=O)NC(=O)[C@H](NC(=O)[C@@H](CC(C)C)NC)[C@H](O)c5ccc(c(Cl)c5)Oc5cc4cc(c5O[C@@H]4O[C@H](CO)[C@@H](O)[C@H](O)[C@H]4O[C@H]4C[C@](C)(N)[C@H](O)[C@H](C)O4)Oc4ccc(cc4Cl)[C@H]3O)c3ccc(O)c(c3)-c3c(O)cc(O)cc32)cc1', 'false'),
  ('CCCCCCc1ccc(NC(=O)CNC(=O)[C@H]2NC(=O)[C@H]3NC(=O)[C@H](NC(=O)[C@@H]4NC(=O)[C@H](CC(N)=O)NC(=O)[C@H](NC(=O)[C@@H](CC(C)C)NC)[C@H](O)c5ccc(c(Cl)c5)Oc5cc4cc(c5O[C@@H]4O[C@H](CO)[C@@H](O)[C@H](O)[C@H]4O[C@H]4C[C@](C)(N)[C@H](O)[C@H](C)O4)Oc4ccc(cc4Cl)[C@H]3O)c3ccc(O)c(c3)-c3c(O)cc(O)cc32)cc1', 'true'),
  ('CCCCc1ccc(NC(=O)CNC(=O)[C@H]2NC(=O)[C@H]3NC(=O)[C@H](NC(=O)[C@@H]4NC(=O)[C@H](CC(N)=O)NC(=O)[C@H](NC(=O)[C@@H](CC(C)C)NC)[C@H](O)c5ccc(c(Cl)c5)Oc5cc4cc(c5O[C@@H]4O[C@H](CO)[C@@H](O)[C@H](O)[C@H]4O[C@H]4C[C@](C)(N)[C@H](O)[C@H](C)O4)Oc4ccc(cc4Cl)[C@H]3O)c3ccc(O)c(c3)-c3c(O)cc(O)cc32)cc1', 'false'),
  ('CNC(CC(C)C)C(=O)NC1C(=O)NC(CC(N)=O)C(=O)NC2C(=O)NC3C(=O)NC(C(=O)NC(C(=O)NCC(=O)Nc4ccc(C=Cc5ccc(N)cc5)cc4)c4cc(O)cc(O)c4-c4cc3ccc4O)C(O)c3ccc(c(Cl)c3)Oc3cc2cc(c3OC2OC(CO)C(O)C(O)C2OC2CC(C)(N)C(O)C(C)O2)Oc2ccc(cc2Cl)C1O (centres unmarked)', 'false'),
  ('CNC(CC(C)C)C(=O)NC1C(=O)NC(CC(N)=O)C(=O)NC2C(=O)NC3C(=O)NC(C(=O)NC(C(=O)NCC(=O)Nc4ccc(C(=O)c5ccccc5)cc4)c4cc(O)cc(O)c4-c4cc3ccc4O)C(O)c3ccc(c(Cl)c3)Oc3cc2cc(c3OC2OC(CO)C(O)C(O)C2OC2CC(C)(N)C(O)C(C)O2)Oc2ccc(cc2Cl)C1O (centres unmarked)', 'false');
